System: Escherichia coli TOP10
protocol_summary: shrunken log2 fold change of peptide-encoding DNA abundance (4.5 h post-induction vs induction); higher = less antimicrobial activity (less host growth inhibition)
cond: time post-induction: 4.5 h; library: site-saturation at positions 5, 18, 19, 20
Lab note: class by shrunken log2 fold change, see range A: < -0.1; range B: ≥ -0.1 and < 0.1; range C: ≥ 0.1

Ask: Which bin, given its shrunken log2 fold change, does `RRIRGRPPRLPRPRPRPKFKPRP` occupy?
Reply: range C

Ask: Please do the same for `RRIRLRPPRLPRPRPRPECCPRP` as well.
Reply: range C

Ask: Next record, please: `RRIRNRPPRLPRPRPRPMNYPRP`
Reply: range B

====

System: Escherichia coli TOP10
protocol_summary: shrunken log2 fold change of peptide-encoding DNA abundance (4.5 h post-induction vs induction); higher = less antimicrobial activity (less host growth inhibition)
cond: time post-induction: 4.5 h; library: site-saturation at positions 5, 18, 19, 20
experimental_readout: shrunken log2 fold change
Write the value as a bare number.

The following sequences have reported results that may help.
> print(dat)
           record.sequence       experimental.readout  observed.measurement
1  RRIRGRPPRLPRPRPRPSMMPRP  shrunken log2 fold change                0.0755
2  RRIRTRPPRLPRPRPRPRYVPRP  shrunken log2 fold change                -0.426
3  RRIRDRPPRLPRPRPRPAMGPRP  shrunken log2 fold change                 0.399

Ask: Fill in the blank: the reported shrunken log2 fold change of `RRIRVRPPRLPRPRPRPVRVPRP` is ____.
Reply: 0.905

Ask: Subsequent entry: `RRIRHRPPRLPRPRPRPVPNPRP`
Reply: -8.36e-05

Ask: Quick one: `RRIRYRPPRLPRPRPRPEMMPRP`
Reply: -0.0745

Ask: Please answer likewise for `RRIRLRPPRLPRPRPRPWIPPRP`
Reply: -0.0167

Ask: Request: `RRIRLRPPRLPRPRPRPFLEPRP`
Reply: -0.106

Ask: What do you have for `RRIRERPPRLPRPRPRPLRCPRP` ?
Reply: 0.187

Ask: // next record `RRIRGRPPRLPRPRPRPWRFPRP`
Reply: 0.425

Ask: Repeat with `RRIRSRPPRLPRPRPRPWAIPRP`
Reply: -0.191

Ask: Again, but for `RRIRSRPPRLPRPRPRPWCRPRP`
Reply: -0.398

Ask: Here is the next sequence: `RRIRPRPPRLPRPRPRPNSNPRP`
Reply: -0.762

Ask: Proceed to `RRIRARPPRLPRPRPRPDACPRP`
Reply: 0.955

Ask: Would you kindly repeat that for `RRIRLRPPRLPRPRPRPGVPPRP` ?
Reply: 0.0447

Ask: Do the same for `RRIRYRPPRLPRPRPRPVGCPRP` please
Reply: -0.284

Ask: Likewise for `RRIRRRPPRLPRPRPRPEKAPRP` ?
Reply: 0.0304

====

Test system: Escherichia coli TOP10;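 also: peptides expressed intracellularly from a pBAD plasmid library in pooled LB shake-flask culture, induced with 0.3% L-arabinose, DNA abundance read by NGS, three biological replicates, DESeq2 with apeglm shrinkage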
protocol_summary: shrunken log2 fold change of peptide-encoding DNA abundance (4.5 h post-induction vs induction); higher = less antimicrobial activity (less host growth inhibition)
cond: time post-induction: 4.5 h; library: site-saturation at positions 5, 18, 19, 20
experimental_readout: shrunken log2 fold change
// print number alone

// solved cases for shrunken log2 fold change follow
> print(dat)
           record.sequence  observed.measurement
1  RRIRYRPPRLPRPRPRPIGMPRP                -0.265
2  RRIRSRPPRLPRPRPRPICMPRP                 0.177
3  RRIRYRPPRLPRPRPRPFGPPRP               -0.0934
4  RRIRERPPRLPRPRPRPTVDPRP               -0.0352

Ask: // fetch Escherichia coli TOP10 shrunken log2 fold change for `RRIRDRPPRLPRPRPRPIVDPRP`
Reply: -0.000946

Ask: Thanks! And `RRIRGRPPRLPRPRPRPYLHPRP` ?
Reply: -0.385

Ask: Next up: `RRIRFRPPRLPRPRPRPDNMPRP`
Reply: -0.748

Numbers sourced from the supplement of paper PMC9112550.
